tested on: MILI (PIWIL2) piRISC loaded with piRNA #1 (26 nt); assay: pre-steady-state target cleavage rate (min^-1); guide: piRNA #1 5'p-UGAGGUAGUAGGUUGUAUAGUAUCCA; higher = faster piRNA-guided slicing of the target; settings: auxiliary factor: 500 nM mouse GTSF1;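 further: 1 nM active piRISC with 0.1 nM target library at 33 °C single turnover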
// bucketize pre-steady-state target cleavage rate: bucket 1 = under 0.01, bucket 2 = from 0.01 up to 0.04, bucket 3 = 0.04 and over

# example entries with known answers
Textbook exercise: identify the category of the sequence given here, `GGAGACCUAUGAUAUGAACCACUACCUCA` , according to its measured value.
bucket 1

Textbook exercise: identify the category of the sequence given here, `GGAGACCUAUGAUAUGUUCCUAUCUACCUCA` , according to its measured value.
bucket 1

Textbook exercise: identify the category of the sequence given here, GGAGACCUAUCUAUACAAGGAUGAUGGAGA [g13:g20:cont:t1A] , according to its measured value.
bucket 1

Textbook exercise: identify the category of the sequence given here, `GGAGACCUAUGUAUACAUCCUAGUACCUCA` , according to its measured value.
bucket 2

Textbook exercise: identify the category of the sequence given here, `GGAGACCUAUGAAUACAAGCUACUACCACA` , according to its measured value.
bucket 2

Textbook exercise: identify the category of the sequence given here, `GGAGACCUAUGUAUACAACCUACUUCCACA` , according to its measured value.
bucket 2

Textbook exercise: identify the category of the sequence given here, `GGAGACCUAACUAUACAUCGUACUACCUCA` , according to its measured value.
bucket 2

Textbook exercise: identify the category of the sequence given here, `GGAGACCUAUGUAUACAACCUACUACCCCA` , according to its measured value.
bucket 3

Textbook exercise: identify the category of the sequence given here, `GGAGUGGAUACAAUUCAACCUACUACCUCA` , according to its measured value.
bucket 3

Textbook exercise: identify the category of the sequence given here, `GGAGAGGAUACUAUACAACCUACACCUCA` , according to its measured value.
bucket 1

Continuing:
Textbook exercise: identify the category of the sequence given here, `GGAGACGAUACUAUACAAGCUACUUCCUCA` , according to its measured value.
bucket 3

Textbook exercise: identify the category of the sequence given here, `GGAGACCUUACUAUACAACCUAAUACCUCA` , according to its measured value.
bucket 3

Textbook exercise: identify the category of the sequence given here, `GGAGAGGAUACUAUACAAGCAACUACCUCA` , according to its measured value.
bucket 1

Textbook exercise: identify the category of the sequence given here, `GGAGACCUAUGAAUACAACCUACUACCUGCA` , according to its measured value.
bucket 1

Textbook exercise: identify the category of the sequence given here, `GGAGACCAUACUAUACAACUACUACCUCA` , according to its measured value.
bucket 3

* * *

test system: EfPiwi piRISC loaded with L1MC piRNA (26 nt); experiment: pre-steady-state target cleavage rate (min^-1); auxiliary factor: 500 nM Ephydatia muelleri Gtsf1; guide: L1MC piRNA 5'p-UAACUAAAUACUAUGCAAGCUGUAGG; MIWI and MILI are mouse PIWI proteins and EfPiwi is from a freshwater sponge; tags in brackets are library labels; higher = faster piRNA-guided slicing of the target
Recorded Metric: pre-steady-state target cleavage rate
Enter the number alone.

The recorded pre-steady-state target cleavage rate for entry `UCCUCCUACAGCUUGCAUAGUAUAUAGAUA` equals 0.0051

The recorded pre-steady-state target cleavage rate for entry `UCCUCCUACAGCUUGCAUAGUAUUAUGUUA` equals 0.0049

Continuing:
The recorded pre-steady-state target cleavage rate for entry `UCCUGGUACAGCUUGCAUAGUAUUUAGAAA` equals 0.00435

The recorded pre-steady-state target cleavage rate for entry `UCCUCCUACAGCUUGCAUAGUAAAUACAAA` equals 0.00363

The recorded pre-steady-state target cleavage rate for entry `UCCUGGUACAGCUUGGAUAGUAUUUAGAAA` equals 0.00277

The recorded pre-steady-state target cleavage rate for entry `UCCUGGAUGUGCUUGCAUGGUAUUUAGUUA` equals 0.0043

The recorded pre-steady-state target cleavage rate for entry `UCCUGGAACAGCUUUGCAUAGUAUUUAGUUA` equals 0.0309

The recorded pre-steady-state target cleavage rate for entry `UCCUGCUUCUGCUUGCAUAGUAUUUAGUUA` equals 0.0112

The recorded pre-steady-state target cleavage rate for entry `UCCUGCUACUGCUUGCAUAGUAUUUAGUUA` equals 0.00883

The recorded pre-steady-state target cleavage rate for entry `UCCUGGUACAGCUACCAUAGUAUUUAGUUA` equals 0.00432
